# combination Emax per record follows
Test system: SW780 (Bladder Carcinoma)
Assay Notes: combination Emax (second highest fraction inhibited in the dose matrix, 72 h); higher = more inhibition; extreme values may be limits of the assay
Could you keep your reply to the number by itself?

Past entries and their recorded results:
INSERT INTO assay_data (compound, recorded_endpoint, result_number) VALUES
  ('COc1cccc(OCCCN)c1-c1cc(Nc2cnc(C#N)cn2)n[nH]1 [Prexasertib] + CN(C)CCCOc1ccc(-c2ccc3ncc4c(c3c2)n(C2CCOCC2)c(=O)n4C)cn1 [AZD0156] (first compound max 1 µM, 7x7, partner max 1 µM)', 'combination Emax', 0.136),
  ('COc1nnc2ccc(N3CCC(c4ccc(OCCN5CCN(C)C(=O)[C@H]5C)cc4)CC3)nn12 [AZD5153] + CC1(C)CCC(CN2CCN(c3ccc(C(=O)NS(=O)(=O)c4ccc(NCC5CCOCC5)c([N+](=O)[O-])c4)c(Oc4cnc5[nH]ccc5c4)c3)CC2)=C(c2ccc(Cl)cc2)C1 [Venetoclax] (first compound max 1 µM, 7x7, partner max 1 µM)', 'combination Emax', 0.375),
  ('CN(C)CCCOc1ccc(-c2ccc3ncc4c(c3c2)n(C2CCOCC2)c(=O)n4C)cn1 [AZD0156] + CCN(CCO)CCCOc1ccc2c(Nc3cc(CC(=O)Nc4cccc(F)c4)[nH]n3)ncnc2c1 [AZD2811] (first compound max 1 µM, 7x7, partner max 1 µM)', 'combination Emax', 0.205),
  ('NC1(C(=O)N[C@@H](CCO)c2ccc(Cl)cc2)CCN(c2ncnc3[nH]ccc23)CC1 [Capivasertib] + CC(=O)c1c(C)c2cnc(Nc3ccc(N4CCNCC4)cn3)nc2n(C2CCCC2)c1=O [Palbociclib] (first compound max 10 µM, 7x7, partner max 10 µM)', 'combination Emax', 0.248),
  ('CC1(C)CCC(CN2CCN(c3ccc(C(=O)NS(=O)(=O)c4ccc(NCC5CCOCC5)c([N+](=O)[O-])c4)c(Oc4cnc5[nH]ccc5c4)c3)CC2)=C(c2ccc(Cl)cc2)C1 [Venetoclax] + Cc1cc2ncnn2cc1Nc1ncc2c(n1)n(C1CCOCC1)c(=O)n2C [AZD7648] (first compound max 1 µM, 7x7, partner max 10 µM)', 'combination Emax', 0.163);

Query block: Bench note: what combination Emax did COc1nnc2ccc(N3CCC(c4ccc(OCCN5CCN(C)C(=O)[C@H]5C)cc4)CC3)nn12 [AZD5153] + Cn1cnc2c(F)c(Nc3ccc(Br)cc3Cl)c(C(=O)NOCCO)cc21 [Selumetinib] (first compound max 1 µM, 7x7, partner max 10 µM) show?
Result block: 0.537

Query block: Bench note: what combination Emax did CC(=O)c1c(C)c2cnc(Nc3ccc(N4CCNCC4)cn3)nc2n(C2CCCC2)c1=O [Palbociclib] + CC1(C)CCC(CN2CCN(c3ccc(C(=O)NS(=O)(=O)c4ccc(NCC5CCOCC5)c([N+](=O)[O-])c4)c(Oc4cnc5[nH]ccc5c4)c3)CC2)=C(c2ccc(Cl)cc2)C1 [Venetoclax] (first compound max 10 µM, 7x7, partner max 1 µM) show?
Result block: 0.108

Query block: Bench note: what combination Emax did COc1nnc2ccc(N3CCC(c4ccc(OCCN5CCN(C)C(=O)[C@H]5C)cc4)CC3)nn12 [AZD5153] + C=CCn1c(=O)c2cnc(Nc3ccc(N4CCN(C)CC4)cc3)nc2n1-c1cccc(C(C)(C)O)n1 [AZD1775] (first compound max 1 µM, partner max 1 µM) show?
Result block: 0.429

Query block: Bench note: what combination Emax did Cc1cc2ncnn2cc1Nc1ncc2c(n1)n(C1CCOCC1)c(=O)n2C [AZD7648] + CN(C)CCCOc1ccc(-c2ccc3ncc4c(c3c2)n(C2CCOCC2)c(=O)n4C)cn1 [AZD0156] (first compound max 10 µM, 7x7, partner max 1 µM) show?
Result block: 0.18

Query block: Bench note: what combination Emax did CC1(C)CCC(CN2CCN(c3ccc(C(=O)NS(=O)(=O)c4ccc(NCC5CCOCC5)c([N+](=O)[O-])c4)c(Oc4cnc5[nH]ccc5c4)c3)CC2)=C(c2ccc(Cl)cc2)C1 [Venetoclax] + COc1cc(Nc2ncc3c(n2)-c2ccc(Cl)cc2C(c2c(F)cccc2OC)=NC3)ccc1C(=O)O [Alisertib] (first compound max 1 µM, 7x7, partner max 10 µM) show?
Result block: 0.534

Query block: Bench note: what combination Emax did C[C@@H](c1ccc2nccn2c1)n1nnc2ncc(-c3cnn(C)c3)nc21 [Savolitinib] + CC1(C)CCC(CN2CCN(c3ccc(C(=O)NS(=O)(=O)c4ccc(NCC5CCOCC5)c([N+](=O)[O-])c4)c(Oc4cnc5[nH]ccc5c4)c3)CC2)=C(c2ccc(Cl)cc2)C1 [Venetoclax] (first compound max 1 µM, 7x7, partner max 1 µM) show?
Result block: 0.11

Query block: Bench note: what combination Emax did CN(C)CCCOc1ccc(-c2ccc3ncc4c(c3c2)n(C2CCOCC2)c(=O)n4C)cn1 [AZD0156] + C[C@@H]1COCCN1C2=NC(=NC(=C2)C3(CC3)[S@](=N)(=O)C)C4=C5C=CNC5=NC=C4 [AZD6738] (first compound max 1 µM, 7x7, partner max 10 µM) show?
Result block: 0.138

Query block: Bench note: what combination Emax did NC1(C(=O)N[C@@H](CCO)c2ccc(Cl)cc2)CCN(c2ncnc3[nH]ccc23)CC1 [Capivasertib] + Cn1cnc2c(F)c(Nc3ccc(Br)cc3Cl)c(C(=O)NOCCO)cc21 [Selumetinib] (first compound max 10 µM, 7x7, partner max 10 µM) show?
Result block: 0.421

src = the supplement of paper PMC11061612
